test-method-notes: Plasma protein binding in rat assessed as unbound fraction
Assay type: ADME, cell-free
Give fulfilled when the value for fraction unbound is at least 0.03. Give not fulfilled when it is less.

Below are worked cases with known answers.
Cc1nnc(-c2ccc(-c3c(F)c(F)cc4c3C(=O)N([C@@H](C(C)(C)O)C(F)(F)F)C4)cc2)o1; fulfilled
Cc1nnc(-c2ccc(-c3cc(F)c(F)c4c3C(=O)N([C@H](C3CC3)C(C)(C)O)C4)cc2)o1; not fulfilled
Cc1nnc(-c2ccc(-c3c(F)c(F)cc4c3C(=O)N([C@H](C3CC3)C(C)(C)O)C4)cc2)o1; fulfilled

Item Cc1nnc(-c2ccc(-c3cccc4c3C(=O)N([C@H](C3CC3)C(C)(C)O)C4)cc2)o1 with fraction unbound of 0.03 or above?
not fulfilled

Item Cc1nnc(-c2ccc(-c3cc(F)cc4c3C(=O)N([C@H](C3CC3)C(C)(C)O)C4)cc2)o1 with fraction unbound of 0.03 or above?
not fulfilled
